# Experimental System: T1, SYNJ2BP, P57105
# T1 sequence (P57105 8-110, limits assumed, looked up): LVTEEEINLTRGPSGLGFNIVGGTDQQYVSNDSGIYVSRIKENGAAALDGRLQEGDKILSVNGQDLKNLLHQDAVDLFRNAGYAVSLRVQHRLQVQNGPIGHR
# Test Name: holdup assay
# Set-up: key: below the threshold = too weak to quantify, mostly under pKd 3.1 to 4
# Measurement Conditions: plain residues with an end cap or a label only (N-terminal biotin on a linker: ahx)
Measure: pKd

VNENQKEYFF [CNTNAP4, Q9C0A0]; below the threshold
SAPATLSSRA [PDLIM2, Q96JY6]; below the threshold
KDECVIATEV [DLL1, O00548]; 4.33
PKMKLNETSF [SHKBP1, Q8TBC3]; below the threshold
